test: activity coefficient (dimensionless); of the first substance listed, at infinite dilution; xn = mol fraction of the nth substance listed; details: 333.15 K; 101.33 kPa; Liquid; Chromatography; x1 = 0
Entries are grouped by activity coefficient into these classes: lower range: < 0.5; middle range: ≥ 0.5 and < 1; upper range: ≥ 1

Some entries whose results are on file:
# Compound, Class
measured = [
    ("C#CCCCCC [1-heptyne] + CCCCCCCCCCCCCC[P+](CCCCCC)(CCCCCC)CCCCCC.N#C[N-]C#N", "middle range"),
    ("C=CCCCCCCCC [1-decene] + CCCCCCCCCCCCCC[P+](CCCCCC)(CCCCCC)CCCCCC.N#C[N-]C#N", "upper range"),
    ("CCCO [propan-1-ol] + CCCCCCCCCCCCCC[P+](CCCCCC)(CCCCCC)CCCCCC.N#C[N-]C#N", "lower range"),
    ("c1ccsc1 [thiophene] + CCCCCCCCCCCCCC[P+](CCCCCC)(CCCCCC)CCCCCC.N#C[N-]C#N", "lower range"),
    ("CCCCCCC [heptane] + CCCCCCCCCCCCCC[P+](CCCCCC)(CCCCCC)CCCCCC.N#C[N-]C#N", "upper range"),
]

Data request: Band of CCCCCCCCC [nonane] + CCCCCCCCCCCCCC[P+](CCCCCC)(CCCCCC)CCCCCC.N#C[N-]C#N ?
Data returned: upper range

Data request: Which category fits this record: CCCCC [pentane] + CCCCCCCCCCCCCC[P+](CCCCCC)(CCCCCC)CCCCCC.N#C[N-]C#N
Data returned: upper range

Data request: Class (by measured activity coefficient) for Cc1ccc(C)cc1 [1,4-dimethylbenzene] + CCCCCCCCCCCCCC[P+](CCCCCC)(CCCCCC)CCCCCC.N#C[N-]C#N
Data returned: middle range

Data request: Which bin, given its activity coefficient, does CCO [ethanol] + CCCCCCCCCCCCCC[P+](CCCCCC)(CCCCCC)CCCCCC.N#C[N-]C#N occupy?
Data returned: lower range

Data request: Which class does C#CCCC [1-pentyne] + CCCCCCCCCCCCCC[P+](CCCCCC)(CCCCCC)CCCCCC.N#C[N-]C#N fall in?
Data returned: middle range

----------
Assign activity coefficient to each entry below.
test: activity coefficient (dimensionless); of the first substance listed, at infinite dilution; xn = mol fraction of the nth substance listed; settings: 333.15 K; 101.33 kPa; Liquid; Chromatography; x1 = 0
Numbers only.

Below: 3 compounds and their reported activity coefficient.
# Compound, Result Type, Readout Value
records = [
    ("Cc1ccccc1 [toluene] + CCCCCCCCCCCCCC[P+](CCCCCC)(CCCCCC)CCCCCC.N#C[N-]C#N", "activity coefficient", 0.489),
    ("C=CCCCCCCC [1-nonene] + CCCCCCCCCCCCCC[P+](CCCCCC)(CCCCCC)CCCCCC.N#C[N-]C#N", "activity coefficient", 1.67),
    ("Cc1cccc(C)c1 [1,3-dimethylbenzene] + CCCCCCCCCCCCCC[P+](CCCCCC)(CCCCCC)CCCCCC.N#C[N-]C#N", "activity coefficient", 0.689),
]

Data request: Give activity coefficient for the following compound: CCC(C)=O [butanone] + CCCCCCCCCCCCCC[P+](CCCCCC)(CCCCCC)CCCCCC.N#C[N-]C#N
Data returned: 0.478
